- SUBJECT_OF_TEST: Interleukin-5 receptor subunit alpha (Mus musculus)
- EXPERIMENT_NOTES: Inhibition of IL-5 receptor in mouse pro-B Y16 cells assessed as decrease in mIL-5 dependent cell proliferation at 30 uM after 48 hrs in presence of 3 units/ml mIL-5 by WST-1 assay relative to control
- Format: cell-based
REPORTED_ENDPOINT: inhibition (%)

Check out these entries, answers already filled in.
COMPOUND: OCCN(Cc1ccncc1)Cc1nc2c(OCC3CCCCC3)cccc2[nH]1
SUBJECT_OF_TEST: Interleukin-5 receptor subunit alpha (Mus musculus)
inhibition / %: 43.3
--
COMPOUND: COc1ccc(CNCc2nc3c(OCC4CCCCC4)cccc3[nH]2)cc1
SUBJECT_OF_TEST: Interleukin-5 receptor subunit alpha (Mus musculus)
inhibition / %: 43.3
--
COMPOUND: c1ccc(NCc2nc3c(OCC4CCCCC4)cccc3[nH]2)cc1
SUBJECT_OF_TEST: Interleukin-5 receptor subunit alpha (Mus musculus)
inhibition / %: 25
--
COMPOUND: CN(CCO)Cc1nc2c(OCC3CCCCC3)cccc2[nH]1
SUBJECT_OF_TEST: Interleukin-5 receptor subunit alpha (Mus musculus)
inhibition / %: 42
--
COMPOUND: CCCN(CCO)Cc1nc2c(OCC3CCCCC3)cccc2[nH]1
SUBJECT_OF_TEST: Interleukin-5 receptor subunit alpha (Mus musculus)
inhibition / %: 63
--
COMPOUND: CC(C)N(CCO)Cc1nc2c(OCC3CCCCC3)cccc2[nH]1
SUBJECT_OF_TEST: Interleukin-5 receptor subunit alpha (Mus musculus)
inhibition / %: 10
--
COMPOUND: OCC(Cc1ccccc1)NCc1nc2c(OCC3CCCCC3)cccc2[nH]1 (stereo unspecified)
SUBJECT_OF_TEST: Interleukin-5 receptor subunit alpha (Mus musculus)
inhibition / %: 81
--
COMPOUND: OCC(CC1CCCCC1)NCc1nc2c(OCC3CCCCC3)cccc2[nH]1 (stereo unspecified)
SUBJECT_OF_TEST: Interleukin-5 receptor subunit alpha (Mus musculus)
inhibition / %: 94.7

[P] OCCCNCc1nc2c(OCC3CCCCC3)cccc2[nH]1
[Q] OCC(NCc1nc2c(OCC3CCCCC3)cccc2[nH]1)c1ccccc1 (stereo unspecified)
Challenge: API: POST /compare with P and Q ; response names the item with higher inhibition. API: response body contains the label of the selected item.
Response given: Q
(Q: 77.7%, P: 52.7%)
